# TEST_DETAILS: Growth inhibition of human UACC62 cells after 48 hrs by SRB assay
# Format: functional
# CONDITION_LABEL: UACC-62, 48 h
Provide the recorded GI50 for the entries that follow.

| STRUCTURE_AS_SMILES | PROPERTY_NAME | RESULT |
| --- | --- | --- |
| COc1cc2c(=O)n(CCCN3CCOCC3)c3c(c2cc1OCCCN1CCOCC1)C(=O)c1cc2c(cc1-3)OCO2 | GI50 | 200 nM |

Below are 3 compounds. Give each one its GI50.
1. COc1cc2c(=O)n(CCCN3CCOCC3)c3c(c2cc1O)C(=O)c1cc2c(cc1-3)OCO2
2. COc1cc2c(=O)n(CCCN3CCOCC3)c3c(c2cc1OCCCN1CCCC1)C(=O)c1cc2c(cc1-3)OCO2
3. COc1cc2c3c(n(C)c(=O)c2cc1OC)-c1cc2c(cc1C3=O)OCO2

A:
300 nM
300 nM
4200 nM

Below are 2 compounds. Give each one its GI50.
1. COc1cc2c(=O)n(CCCN3CCOCC3)c3c(c2cc1OCCCN)C(=O)c1cc2c(cc1-3)OCO2
2. COc1cc2c(=O)n(CCCN3CCOCC3)c3c(c2cc1OCCCN1CCCCC1)C(=O)c1cc2c(cc1-3)OCO2

A:
["300 nM", "9600 nM"]

Below are 2 compounds. Give each one its GI50.
1. C=CCOc1cc2c3c(n(CCCN4CCOCC4)c(=O)c2cc1OC)-c1cc2c(cc1C3=O)OCO2
2. COC(=O)COc1cc2c3c(n(CCCN4CCOCC4)c(=O)c2cc1OC)-c1cc2c(cc1C3=O)OCO2

A:
< 10 nM
1000 nM

Where these numbers come from: ChEMBL document CHEMBL3259672
